target: CDKL2 (human) (UniProt Q92772); assay: KINOMEscan competition binding; conditions: compound 10.0 µM
Sequence (Q92772 whole entry, looked up): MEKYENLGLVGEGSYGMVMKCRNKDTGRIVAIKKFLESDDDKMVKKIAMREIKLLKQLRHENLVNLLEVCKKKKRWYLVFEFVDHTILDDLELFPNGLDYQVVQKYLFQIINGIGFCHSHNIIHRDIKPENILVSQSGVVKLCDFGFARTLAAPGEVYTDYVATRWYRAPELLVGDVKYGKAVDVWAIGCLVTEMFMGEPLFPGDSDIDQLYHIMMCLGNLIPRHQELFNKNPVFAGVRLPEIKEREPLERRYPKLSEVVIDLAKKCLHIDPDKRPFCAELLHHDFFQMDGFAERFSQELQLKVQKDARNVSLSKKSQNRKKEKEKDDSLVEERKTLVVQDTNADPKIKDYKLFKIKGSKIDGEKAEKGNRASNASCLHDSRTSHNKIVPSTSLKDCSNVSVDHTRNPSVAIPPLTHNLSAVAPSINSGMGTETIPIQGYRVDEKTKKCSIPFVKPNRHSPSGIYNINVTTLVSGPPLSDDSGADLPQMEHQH
QUANTITY_NAME: kinase still bound, per cent of control (%)
Could you give me the number in %? Just the number is fine.

Below: 5 compounds and their reported kinase still bound, per cent of control.
CC(=O)c1c(C)c2cnc(Nc3ccc(N4CCNCC4)cn3)nc2n(C2CCCC2)c1=O; 6.8
COc1cc(C)c(Sc2cnc(NC(=O)c3ccc(CNC(C)C(C)C)cc3)s2)cc1C(=O)N1CCN(C(C)=O)CC1 (stereo unspecified); 100
O=c1[nH]c2ccccc2n1C1CCN(Cc2ccc(-c3nc4cc5[nH]cnc5cc4nc3-c3ccccc3)cc2)CC1; 77
CCc1nc(-c2cccc(C)c2)c(-c2ccnc(NC(=O)c3ccccc3)c2)s1; 80
CCN(CCO)CCCOc1ccc2c(Nc3cc(CC(=O)Nc4cccc(F)c4)[nH]n3)ncnc2c1; 18

Moving on to another compound below.
Inquiry: Item Cc1cn(-c2cc(C(=O)Nc3ccc(C)c(NC(=O)c4ccno4)c3)cc(C(F)(F)F)c2)cn1 has what recorded kinase still bound, per cent of control?
Reply text: 100

====

The entries below come with measured kinase still bound, per cent of control values attached.
target: TNK1 (human) (UniProt Q13470); experiment: KINOMEscan competition binding; settings: compound 10.0 µM
Sequence (Q13470 whole entry, looked up): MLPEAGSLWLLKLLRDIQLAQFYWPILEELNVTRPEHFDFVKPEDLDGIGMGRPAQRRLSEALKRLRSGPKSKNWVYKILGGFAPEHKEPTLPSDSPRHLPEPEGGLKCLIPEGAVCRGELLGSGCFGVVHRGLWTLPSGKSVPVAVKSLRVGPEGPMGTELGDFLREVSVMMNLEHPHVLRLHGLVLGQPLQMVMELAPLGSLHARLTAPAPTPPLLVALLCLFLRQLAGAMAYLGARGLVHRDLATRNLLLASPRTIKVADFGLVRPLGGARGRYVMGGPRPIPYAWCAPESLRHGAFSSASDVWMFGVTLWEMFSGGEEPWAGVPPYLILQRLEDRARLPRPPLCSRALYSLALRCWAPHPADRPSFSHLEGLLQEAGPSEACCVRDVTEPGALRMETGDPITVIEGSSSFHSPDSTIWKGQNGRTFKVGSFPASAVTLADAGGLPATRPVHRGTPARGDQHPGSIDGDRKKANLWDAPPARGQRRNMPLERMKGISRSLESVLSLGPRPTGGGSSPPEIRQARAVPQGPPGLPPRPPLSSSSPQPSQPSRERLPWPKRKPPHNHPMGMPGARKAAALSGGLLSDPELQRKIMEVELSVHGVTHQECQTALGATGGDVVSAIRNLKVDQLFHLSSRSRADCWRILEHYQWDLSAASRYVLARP
Could you give me the number in %? Just the number is fine.

Below: 3 compounds and their reported kinase still bound, per cent of control.
COc1cc(N2CCC(C(N)=O)CC2)ccc1Nc1nc(N)c(Cl)c(Nc2ccccc2S(=O)(=O)C(C)C)n1; 3.8
N#C/C(=C1/Nc2ccccc2S1)c1ccnc(NCCc2cccnc2)n1; 46
CNC(=O)Nc1ccc(-c2nc(N3CC4CCC(C3)O4)c3cnn(C4CCC5(CC4)OCCO5)c3n2)cc1; 78

Moving on to another compound below.
Inquiry: Item CCOc1cc(N2CCC(O)CC2)ccc1Nc1ncc2c(n1)N(C)c1ccccc1C(=O)N2C has what recorded kinase still bound, per cent of control?
Reply text: 7.8

====

The entries below come with measured kinase still bound, per cent of control values attached.
target: CAMK2G (human) (UniProt Q13555); experiment: KINOMEscan competition binding; conditions: compound 10.0 µM
Sequence (Q13555 whole entry, looked up): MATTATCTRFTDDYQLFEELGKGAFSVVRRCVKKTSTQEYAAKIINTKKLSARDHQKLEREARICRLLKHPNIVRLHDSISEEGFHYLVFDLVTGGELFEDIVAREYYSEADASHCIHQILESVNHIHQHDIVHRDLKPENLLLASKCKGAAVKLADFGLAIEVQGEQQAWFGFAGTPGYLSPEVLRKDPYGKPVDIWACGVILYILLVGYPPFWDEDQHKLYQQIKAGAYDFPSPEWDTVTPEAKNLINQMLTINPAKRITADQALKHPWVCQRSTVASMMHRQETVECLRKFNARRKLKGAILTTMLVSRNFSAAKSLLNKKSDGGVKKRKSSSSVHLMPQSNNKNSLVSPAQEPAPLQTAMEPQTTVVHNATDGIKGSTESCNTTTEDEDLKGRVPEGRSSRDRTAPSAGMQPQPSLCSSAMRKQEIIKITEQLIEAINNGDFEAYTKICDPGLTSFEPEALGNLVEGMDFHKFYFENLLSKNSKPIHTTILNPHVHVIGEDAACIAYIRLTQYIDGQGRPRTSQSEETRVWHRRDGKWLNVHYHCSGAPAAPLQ
Could you give me the number in %? Just the number is fine.

CCOc1cc(N2CCC(O)CC2)ccc1Nc1ncc2c(n1)N(C)c1ccccc1C(=O)N2C; 100

Inquiry: Item COc1cc(N2CCC(C(N)=O)CC2)ccc1Nc1nc(N)c(Cl)c(Nc2ccccc2S(=O)(=O)C(C)C)n1 has what recorded kinase still bound, per cent of control?
Reply text: 100

Inquiry: Same question, COc1cc2c(Nc3ccc(NC(=O)c4ccccc4)cc3)ncnc2cc1OCCCN1CCOCC1 this time
Reply text: 100

Inquiry: Same question, CNC(=O)Nc1ccc(-c2nc(N3CC4CCC(C3)O4)c3cnn(C4CCC5(CC4)OCCO5)c3n2)cc1 this time
Reply text: 100

Inquiry: Same question, N#Cc1cc(-c2ccnc(Nc3ccc(-n4cnc(-c5cccnc5)n4)cc3)n2)cc(N2CCOCC2)c1 this time
Reply text: 32

Inquiry: Same question, N#C/C(=C1/Nc2ccccc2S1)c1ccnc(NCCc2cccnc2)n1 this time
Reply text: 78

Inquiry: Same question, CC1=C(C(=O)Nc2cc3cn[nH]c3cc2F)C(c2ccc(C(F)(F)F)cc2)CC(=O)N1 (stereo not given) this time
Reply text: 97

Inquiry: Same question, C=CC(=O)Nc1ccc(C(=O)c2sc(Nc3ccc(N4CCN(C)CC4)cc3OC)nc2N)cc1 this time
Reply text: 1.6

Inquiry: Same question, CCc1nc(-c2cccc(C)c2)c(-c2ccnc(NC(=O)c3ccccc3)c2)s1 this time
Reply text: 100

Inquiry: Same question, Cc1cn(-c2cc(C(=O)Nc3ccc(C)c(NC(=O)c4ccno4)c3)cc(C(F)(F)F)c2)cn1 this time
Reply text: 100

====

target: UniProt Q15831; assay: KINOMEscan competition binding; conditions: compound 10.0 µM
Sequence (Q15831 whole entry, looked up): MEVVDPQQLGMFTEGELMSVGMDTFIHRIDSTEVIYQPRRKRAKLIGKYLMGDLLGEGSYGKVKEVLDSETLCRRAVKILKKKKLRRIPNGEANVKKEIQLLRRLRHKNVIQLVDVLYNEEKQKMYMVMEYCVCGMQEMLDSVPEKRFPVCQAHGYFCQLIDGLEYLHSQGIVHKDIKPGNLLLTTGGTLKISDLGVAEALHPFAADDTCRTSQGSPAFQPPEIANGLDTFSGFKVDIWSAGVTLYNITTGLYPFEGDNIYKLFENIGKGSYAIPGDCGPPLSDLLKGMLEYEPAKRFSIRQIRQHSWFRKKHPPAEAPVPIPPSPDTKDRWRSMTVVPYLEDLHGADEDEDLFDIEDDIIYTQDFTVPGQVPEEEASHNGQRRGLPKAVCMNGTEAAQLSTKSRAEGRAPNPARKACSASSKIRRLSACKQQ
QUANTITY_NAME: kinase still bound, per cent of control
Answer with the figure and its unit, nothing else.

Below: 3 compounds and their reported kinase still bound, per cent of control.
CCCS(=O)(=O)Nc1ccc(F)c(C(=O)c2c[nH]c3ncc(Cl)cc23)c1F; 79%
CCOc1cc(N2CCC(O)CC2)ccc1Nc1ncc2c(n1)N(C)c1ccccc1C(=O)N2C; 100%
CC1=C(C(=O)Nc2cc3cn[nH]c3cc2F)C(c2ccc(C(F)(F)F)cc2)CC(=O)N1 (centres undefined); 100%

Moving on to another compound below.
Inquiry: Item CNC(=O)Nc1ccc(-c2nc(N3CC4CCC(C3)O4)c3cnn(C4CCC5(CC4)OCCO5)c3n2)cc1 has what recorded kinase still bound, per cent of control?
Reply text: 80%

====

target: DMPK (human) (UniProt Q09013); experiment: KINOMEscan competition binding; details: compound 10.0 µM
Sequence (Q09013 whole entry, looked up): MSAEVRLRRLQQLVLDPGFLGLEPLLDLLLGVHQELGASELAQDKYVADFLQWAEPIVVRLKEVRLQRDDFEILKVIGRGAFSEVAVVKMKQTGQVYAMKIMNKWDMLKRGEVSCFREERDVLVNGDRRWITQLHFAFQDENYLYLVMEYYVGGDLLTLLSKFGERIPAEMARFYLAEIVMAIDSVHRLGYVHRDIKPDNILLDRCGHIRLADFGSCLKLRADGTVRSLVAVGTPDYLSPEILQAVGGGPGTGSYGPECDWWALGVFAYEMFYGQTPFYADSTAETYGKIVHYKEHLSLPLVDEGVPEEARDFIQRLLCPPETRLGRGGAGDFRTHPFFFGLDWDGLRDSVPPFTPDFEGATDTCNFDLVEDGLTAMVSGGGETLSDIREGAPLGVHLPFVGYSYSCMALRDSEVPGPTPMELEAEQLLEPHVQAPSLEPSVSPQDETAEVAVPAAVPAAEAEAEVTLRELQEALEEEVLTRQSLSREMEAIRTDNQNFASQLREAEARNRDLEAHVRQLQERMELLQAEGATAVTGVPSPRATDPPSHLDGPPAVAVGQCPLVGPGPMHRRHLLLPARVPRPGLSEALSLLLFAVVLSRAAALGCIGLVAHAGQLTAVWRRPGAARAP
QUANTITY_NAME: kinase still bound, per cent of control

CCN(CCO)CCCOc1ccc2c(Nc3cc(CC(=O)Nc4cccc(F)c4)[nH]n3)ncnc2c1; 93%
C=CC(=O)Nc1ccc(C(=O)c2sc(Nc3ccc(N4CCN(C)CC4)cc3OC)nc2N)cc1; 12%
N#Cc1cc(-c2ccnc(Nc3ccc(-n4cnc(-c5cccnc5)n4)cc3)n2)cc(N2CCOCC2)c1; 85%
CCOc1cc(N2CCC(O)CC2)ccc1Nc1ncc2c(n1)N(C)c1ccccc1C(=O)N2C; 100%
COc1cc(N2CCC(C(N)=O)CC2)ccc1Nc1nc(N)c(Cl)c(Nc2ccccc2S(=O)(=O)C(C)C)n1; 100%
CCc1nc(-c2cccc(C)c2)c(-c2ccnc(NC(=O)c3ccccc3)c2)s1; 92%

Inquiry: Item N#C/C(=C1/Nc2ccccc2S1)c1ccnc(NCCc2cccnc2)n1 has what recorded kinase still bound, per cent of control?
Reply text: 100%

Inquiry: Same question, CC(=O)c1c(C)c2cnc(Nc3ccc(N4CCNCC4)cn3)nc2n(C2CCCC2)c1=O this time
Reply text: 80%

Inquiry: Same question, CC1=C(C(=O)Nc2cc3cn[nH]c3cc2F)C(c2ccc(C(F)(F)F)cc2)CC(=O)N1 (centres undefined) this time
Reply text: 100%

Inquiry: Same question, COc1cc2ncnc(Nc3cccc(Cl)c3)c2cc1OC this time
Reply text: 79%

Inquiry: Same question, Cc1cn(-c2cc(C(=O)Nc3ccc(C)c(NC(=O)c4ccno4)c3)cc(C(F)(F)F)c2)cn1 this time
Reply text: 100%

====

biological target: CSNK2A2 (human) (UniProt P19784); experiment: KINOMEscan competition binding; conditions: compound 10.0 µM
Sequence (P19784 whole entry, looked up): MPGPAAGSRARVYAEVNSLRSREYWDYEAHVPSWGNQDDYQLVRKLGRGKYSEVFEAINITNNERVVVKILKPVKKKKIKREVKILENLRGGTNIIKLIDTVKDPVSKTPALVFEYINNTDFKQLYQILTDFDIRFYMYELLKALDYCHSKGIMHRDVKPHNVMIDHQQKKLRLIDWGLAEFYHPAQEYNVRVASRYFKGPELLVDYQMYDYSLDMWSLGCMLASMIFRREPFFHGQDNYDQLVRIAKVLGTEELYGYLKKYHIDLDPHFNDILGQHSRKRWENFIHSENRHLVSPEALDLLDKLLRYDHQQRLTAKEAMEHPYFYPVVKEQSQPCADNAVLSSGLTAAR
The entries below come with measured kinase still bound, per cent of control values attached.
Could you give me the number in %? Just the number is fine.

CC1=C(C(=O)Nc2cc3cn[nH]c3cc2F)C(c2ccc(C(F)(F)F)cc2)CC(=O)N1 (stereo not drawn); 86
COc1cc(C)c(Sc2cnc(NC(=O)c3ccc(CNC(C)C(C)C)cc3)s2)cc1C(=O)N1CCN(C(C)=O)CC1 (stereo not drawn); 100

Inquiry: Param readout = kinase still bound, per cent of control; param system = CSNK2A2 (human) (UniProt P19784); param query = O=c1[nH]c2ccccc2n1C1CCN(Cc2ccc(-c3nc4cc5[nH]cnc5cc4nc3-c3ccccc3)cc2)CC1 ; response: value
Reply text: 92

====

target: CDK16 (human); test: KINOMEscan competition binding; conditions: compound 10.0 µM
The entries below come with measured kinase still bound, per cent of control values attached.
Could you give me the number in %? Just the number is fine.

Below: 3 molecules and their reported kinase still bound, per cent of control.
CCN1CCN(Cc2ccc(NC(=O)c3ccc(C)c(/C=C/c4cnc5[nH]ccc5c4OC)c3)cc2C(F)(F)F)CC1; 98
N#Cc1cc(-c2ccnc(Nc3ccc(-n4cnc(-c5cccnc5)n4)cc3)n2)cc(N2CCOCC2)c1; 6.8
COc1cc(C)c(Sc2cnc(NC(=O)c3ccc(CNC(C)C(C)C)cc3)s2)cc1C(=O)N1CCN(C(C)=O)CC1 (centres undefined); 100

Moving on to another molecule below.
Inquiry: Item CC(=O)c1c(C)c2cnc(Nc3ccc(N4CCNCC4)cn3)nc2n(C2CCCC2)c1=O has what recorded kinase still bound, per cent of control?
Reply text: 0.2

====

target: PAK2 (human); experiment: KINOMEscan competition binding; conditions: compound 10.0 µM
QUANTITY_NAME: kinase still bound, per cent of control (%)
Could you give me the number in %? Just the number is fine.

N#C/C(=C1/Nc2ccccc2S1)c1ccnc(NCCc2cccnc2)n1; 34
COc1cc2ncnc(Nc3cccc(Cl)c3)c2cc1OC; 53
CCCS(=O)(=O)Nc1ccc(F)c(C(=O)c2c[nH]c3ncc(Cl)cc23)c1F; 37
COc1cc(C)c(Sc2cnc(NC(=O)c3ccc(CNC(C)C(C)C)cc3)s2)cc1C(=O)N1CCN(C(C)=O)CC1 (configuration not stated); 100
COc1cc2c(Nc3ccc(NC(=O)c4ccccc4)cc3)ncnc2cc1OCCCN1CCOCC1; 89

Inquiry: Item CC1=C(C(=O)Nc2cc3cn[nH]c3cc2F)C(c2ccc(C(F)(F)F)cc2)CC(=O)N1 (configuration not stated) has what recorded kinase still bound, per cent of control?
Reply text: 88

Inquiry: Same question, CCc1nc(-c2cccc(C)c2)c(-c2ccnc(NC(=O)c3ccccc3)c2)s1 this time
Reply text: 85

Inquiry: Same question, CCN1CCN(Cc2ccc(NC(=O)c3ccc(C)c(/C=C/c4cnc5[nH]ccc5c4OC)c3)cc2C(F)(F)F)CC1 this time
Reply text: 100

Inquiry: Same question, CNC(=O)Nc1ccc(-c2nc(N3CC4CCC(C3)O4)c3cnn(C4CCC5(CC4)OCCO5)c3n2)cc1 this time
Reply text: 99

Inquiry: Same question, COc1cc(N2CCC(C(N)=O)CC2)ccc1Nc1nc(N)c(Cl)c(Nc2ccccc2S(=O)(=O)C(C)C)n1 this time
Reply text: 100
